- Tested on: KB
- assayOverview: Cytotoxicity against human KB cells after 72 hrs ny MTT assay
- Type: functional, cell-based
pIC50: −log10 of the molar value.
Recorded pIC50 by entry
readout: pIC50

• CCCOP(=O)(OCCC)C(NC(=O)COc1cccc(C(F)(F)F)c1)c1ccc(OC)cc1 (stereo unspecified) = 4.70
• O=c1[nH]cc(F)c(=O)[nH]1 = 5.05
• CCCCOP(=O)(OCCCC)C(NC(=O)COc1ccccc1Cl)c1ccccc1 (stereo unspecified) = 4.80
• CCCCOP(=O)(OCCCC)C(NC(=O)COc1cccc(C)c1C)c1ccc(OC)cc1 (stereo unspecified) = 5.15
• CCCCOP(=O)(OCCCC)C(NC(=O)COc1ccc(C(C)(C)C)cc1)c1ccc(OC)cc1 (stereo unspecified) = 4.88
